Where do the numbers come from? From ChEMBL document CHEMBL1135880.

- study_system: Hemoglobin HbA (Homo sapiens) (UniProt P69905+P68871)
- Sequence (P68871 2-147 partner limits assumed): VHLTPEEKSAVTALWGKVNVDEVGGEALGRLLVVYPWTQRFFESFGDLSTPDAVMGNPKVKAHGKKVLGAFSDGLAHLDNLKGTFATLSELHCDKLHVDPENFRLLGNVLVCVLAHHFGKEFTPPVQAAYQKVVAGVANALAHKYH
- Sequence (P69905 2-142 limits assumed): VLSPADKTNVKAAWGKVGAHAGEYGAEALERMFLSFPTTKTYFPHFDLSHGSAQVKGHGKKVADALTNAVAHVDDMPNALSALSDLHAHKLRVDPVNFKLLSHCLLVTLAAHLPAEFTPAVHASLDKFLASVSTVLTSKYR
- measurement_notes: The Hill coefficient at 50% saturation (n50) in the presence of effector.
- Assay type: protein-complex assay
n50e reference
Could you respond with only the numeric value?

[[record]]
smiles_entry = "Cc1cc(C)cc(NC(=O)Cc2ccc(OC3(C(=O)N[C@@H](C(=O)O)C(C)C)CCCC3)cc2)c1"
assay_result = 1.9

[[record]]
smiles_entry = "Cc1cc(C)cc(NC(=O)Cc2ccc(OC3(C(=O)N[C@H](CCCCN)C(=O)O)CCCC3)cc2)c1"
assay_result = 2.7

[[record]]
smiles_entry = "Cc1cc(C)cc(NC(=O)Cc2ccc(OC3(C(=O)N[C@@H](C)C(=O)O)CCCC3)cc2)c1"
assay_result = 2.1


Turning now to a further compound:
Exercise: Query: n50e; subject: Cc1cc(C)cc(NC(=O)Cc2ccc(OC3(C(=O)N[C@@H](CC(C)C)C(=O)O)CCCC3)cc2)c1
Solution: 1.8

----------
- study_system: Hemoglobin HbA (Homo sapiens) (UniProt P69905+P68871)
- measurement_notes: The Hill coefficient at 50% saturation (n50) between 40 and 60% oxygen saturation (n50 control value with no effector present, 2.7).
- Type: protein-complex assay
Hill coefficient (n50) reference

Below: 4 compounds and their reported Hill coefficient (n50).
[[record]]
compound = "Cc1cc(C)cc(NC(=O)Cc2ccc(OC3(C(=O)N[C@H](CC(=O)O)C(=O)O)CCCC3)cc2)c1"
assay_result = 2.6

[[record]]
compound = "CC[C@@H](C)[C@@H](NC(=O)C1(Oc2ccc(CC(=O)Nc3cc(C)cc(C)c3)cc2)CCCC1)C(=O)O"
assay_result = 2.6

[[record]]
compound = "Cc1cc(C)cc(NC(=O)Cc2ccc(OC3(C(=O)N[C@@H](C(=O)O)C(C)C)CCCC3)cc2)c1"
assay_result = 2.6

[[record]]
compound = "Cc1cc(C)cc(NC(=O)Cc2ccc(OC3(C(=O)N[C@@H](C(=O)O)C(C)O)CCCC3)cc2)c1 (stereo partly drawn)"
assay_result = 2.6


Exercise: # query: Hill coefficient (n50) | item Cc1cc(C)cc(NC(=O)Cc2ccc(OC3(C(=O)N[C@H](Cc4ccc5[nH]ccc5c4)C(=O)O)CCCC3)cc2)c1 | system: Hemoglobin HbA (Homo sapiens) (UniProt P69905+P68871)
Solution: 2.1

Exercise: # query: Hill coefficient (n50) | item Cc1cc(C)cc(NC(=O)Cc2ccc(OC3(C(=O)N[C@H](Cc4ccccc4)C(=O)O)CCCC3)cc2)c1 | system: Hemoglobin HbA (Homo sapiens) (UniProt P69905+P68871)
Solution: 2.6

Exercise: # query: Hill coefficient (n50) | item Cc1cc(C)cc(NC(=O)Cc2ccc(OC3(C(=O)N[C@H](CO)C(=O)O)CCCC3)cc2)c1 | system: Hemoglobin HbA (Homo sapiens) (UniProt P69905+P68871)
Solution: 2.6

Exercise: # query: Hill coefficient (n50) | item Cc1cc(C)cc(NC(=O)Cc2ccc(OC3(C(=O)N[C@@H](CC(C)C)C(=O)O)CCCC3)cc2)c1 | system: Hemoglobin HbA (Homo sapiens) (UniProt P69905+P68871)
Solution: 2.7

----------
- study_system: Hemoglobin HbA (Homo sapiens) (UniProt P69905+P68871)
- measurement_notes: Ability to right-shift the oxygen equilibrium curves (OECs) quantified by ability to increase in P50 in whole blood analyses.
- Type: functional, tissue-based
P50c reference
// return numeric value only (unit: mmHg, not printed)

Exercise: Query: P50c; subject: Cc1cc(C)cc(NC(=O)Cc2ccc(OC3(C(=O)N4CCC[C@H]4C(=O)O)CCCC3)cc2)c1
Solution: 24.8

Exercise: Query: P50c; subject: Cc1cc(C)cc(NC(=O)Cc2ccc(OC3(C(=O)N[C@@H](CCCCNC(=O)OCc4ccccc4)C(=O)O)CCCC3)cc2)c1
Solution: 28.3

Exercise: Query: P50c; subject: Cc1cc(C)cc(NC(=O)Cc2ccc(OC3(C(=O)N[C@H](CCCCNC(=O)OCc4ccccc4)C(=O)O)CCCC3)cc2)c1
Solution: 27.5

Exercise: Query: P50c; subject: Cc1cc(C)cc(NC(=O)Cc2ccc(OC3(C(=O)N[C@@H](C)C(=O)O)CCCC3)cc2)c1
Solution: 26.8

Exercise: Query: P50c; subject: Cc1cc(C)cc(NC(=O)Cc2ccc(OC3(C(=O)N[C@H](Cc4ccc(O)cc4)C(=O)O)CCCC3)cc2)c1
Solution: 27.2

Exercise: Query: P50c; subject: Cc1cc(C)cc(NC(=O)Cc2ccc(OC3(C(=O)N[C@H](CCC(=O)O)C(=O)O)CCCC3)cc2)c1
Solution: 28.3

Exercise: Query: P50c; subject: Cc1cc(C)cc(NC(=O)Cc2ccc(OC3(C(=O)N[C@H](CC(=O)O)C(=O)O)CCCC3)cc2)c1
Solution: 26.2

Exercise: Query: P50c; subject: Cc1cc(C)cc(NC(=O)Cc2ccc(OC3(C(=O)N[C@H](CCCCN)C(=O)O)CCCC3)cc2)c1
Solution: 28.3

----------
P50e reference
- study_system: Hemoglobin HbA (Homo sapiens) (UniProt P69905+P68871)
- measurement_notes: Ability to right-shift the oxygen equilibrium curves (OECs) quantified by ability to increase in P50 at which Hb was 50% saturated with oxygen in the presence of the effector at the concentration of 5 mM.
- Type: functional
Number plus unit, in that order.

Below: 4 compounds and their reported P50e.
[[record]]
compound = "Cc1cc(C)cc(NC(=O)Cc2ccc(OC3(C(=O)N4CCC[C@H]4C(=O)O)CCCC3)cc2)c1"
quantity_kind = "P50e"
assay_result = "42.5 mmHg"

[[record]]
compound = "Cc1cc(C)cc(NC(=O)Cc2ccc(OC3(C(=O)N[C@H](C(=O)O)C(C)C)CCCC3)cc2)c1"
quantity_kind = "P50e"
assay_result = "54.8 mmHg"

[[record]]
compound = "Cc1cc(C)cc(NC(=O)Cc2ccc(OC3(C(=O)N[C@H](Cc4ccccc4)C(=O)O)CCCC3)cc2)c1"
quantity_kind = "P50e"
assay_result = "49.8 mmHg"

[[record]]
compound = "Cc1cc(C)cc(NC(=O)Cc2ccc(OC3(C(=O)N[C@@H](Cc4ccccc4)C(=O)O)CCCC3)cc2)c1"
quantity_kind = "P50e"
assay_result = "67.5 mmHg"


Exercise: Query: P50e; subject: Cc1cc(C)cc(NC(=O)Cc2ccc(OC3(C(=O)N[C@@H](C(=O)O)C(C)O)CCCC3)cc2)c1 (some centres not stated)
Solution: 41.1 mmHg

Exercise: Query: P50e; subject: Cc1cc(C)cc(NC(=O)Cc2ccc(OC3(C(=O)N[C@H](C)C(=O)O)CCCC3)cc2)c1
Solution: 52.1 mmHg

Exercise: Query: P50e; subject: Cc1cc(C)cc(NC(=O)Cc2ccc(OC3(C(=O)N[C@@H](Cc4ccc5[nH]ccc5c4)C(=O)O)CCCC3)cc2)c1
Solution: 48.8 mmHg

----------
- study_system: Hemoglobin HbA (Homo sapiens) (UniProt P69905+P68871)
- measurement_notes: The Hill coefficient at 50% saturation (n50) in the presence of effector.
- Format: protein-complex assay
quantity_kind: n50e
Could you respond with only the numeric value?

[[record]]
smiles_entry = "Cc1cc(C)cc(NC(=O)Cc2ccc(OC3(C(=O)N[C@H](Cc4ccc(O)cc4)C(=O)O)CCCC3)cc2)c1"
quantity_kind = "n50e"
assay_result = 2

[[record]]
smiles_entry = "Cc1cc(C)cc(NC(=O)Cc2ccc(OC3(C(=O)N[C@@H](CO)C(=O)O)CCCC3)cc2)c1"
quantity_kind = "n50e"
assay_result = 2.3


Turning now to a further compound:
Exercise: Query: n50e; subject: Cc1cc(C)cc(NC(=O)Cc2ccc(OC3(C(=O)N4CCC[C@H]4C(=O)O)CCCC3)cc2)c1
Solution: 2.3

----------
- study_system: Hemoglobin HbA (Homo sapiens) (UniProt P69905+P68871)
- measurement_notes: Ability to right-shift the oxygen equilibrium curves (OECs) quantified by ability to increase in P50 in whole blood analyses.
- Type: functional, tissue-based
quantity_kind: P50c (mmHg)
// return numeric value only (unit: mmHg, not printed)

Exercise: Query: P50c; subject: Cc1cc(C)cc(NC(=O)Cc2ccc(OC3(C(=O)NCC(=O)O)CCCC3)cc2)c1
Solution: 26.2

Exercise: Query: P50c; subject: Cc1cc(C)cc(NC(=O)Cc2ccc(OC3(C(=O)N[C@H](CC(C)C)C(=O)O)CCCC3)cc2)c1
Solution: 27.1

Exercise: Query: P50c; subject: CC[C@@H](C)[C@@H](NC(=O)C1(Oc2ccc(CC(=O)Nc3cc(C)cc(C)c3)cc2)CCCC1)C(=O)O
Solution: 26.5

Exercise: Query: P50c; subject: Cc1cc(C)cc(NC(=O)Cc2ccc(OC(C)(C)C(=O)O)cc2)c1
Solution: 29.8

Exercise: Query: P50c; subject: Cc1cc(C)cc(NC(=O)Cc2ccc(OC3(C(=O)N[C@H](C)C(=O)O)CCCC3)cc2)c1
Solution: 29.4
